Values were extracted from patent US20070111265A1.

Target: MR L848Q (Homo sapiens, UniProt P08235, L848Q)
Construct: (S843P and L848Q) within the context of the full length wild type receptor; expressed in transfected cells; host or cells: Cos-7
Sequence (P08235 1-984 L848Q): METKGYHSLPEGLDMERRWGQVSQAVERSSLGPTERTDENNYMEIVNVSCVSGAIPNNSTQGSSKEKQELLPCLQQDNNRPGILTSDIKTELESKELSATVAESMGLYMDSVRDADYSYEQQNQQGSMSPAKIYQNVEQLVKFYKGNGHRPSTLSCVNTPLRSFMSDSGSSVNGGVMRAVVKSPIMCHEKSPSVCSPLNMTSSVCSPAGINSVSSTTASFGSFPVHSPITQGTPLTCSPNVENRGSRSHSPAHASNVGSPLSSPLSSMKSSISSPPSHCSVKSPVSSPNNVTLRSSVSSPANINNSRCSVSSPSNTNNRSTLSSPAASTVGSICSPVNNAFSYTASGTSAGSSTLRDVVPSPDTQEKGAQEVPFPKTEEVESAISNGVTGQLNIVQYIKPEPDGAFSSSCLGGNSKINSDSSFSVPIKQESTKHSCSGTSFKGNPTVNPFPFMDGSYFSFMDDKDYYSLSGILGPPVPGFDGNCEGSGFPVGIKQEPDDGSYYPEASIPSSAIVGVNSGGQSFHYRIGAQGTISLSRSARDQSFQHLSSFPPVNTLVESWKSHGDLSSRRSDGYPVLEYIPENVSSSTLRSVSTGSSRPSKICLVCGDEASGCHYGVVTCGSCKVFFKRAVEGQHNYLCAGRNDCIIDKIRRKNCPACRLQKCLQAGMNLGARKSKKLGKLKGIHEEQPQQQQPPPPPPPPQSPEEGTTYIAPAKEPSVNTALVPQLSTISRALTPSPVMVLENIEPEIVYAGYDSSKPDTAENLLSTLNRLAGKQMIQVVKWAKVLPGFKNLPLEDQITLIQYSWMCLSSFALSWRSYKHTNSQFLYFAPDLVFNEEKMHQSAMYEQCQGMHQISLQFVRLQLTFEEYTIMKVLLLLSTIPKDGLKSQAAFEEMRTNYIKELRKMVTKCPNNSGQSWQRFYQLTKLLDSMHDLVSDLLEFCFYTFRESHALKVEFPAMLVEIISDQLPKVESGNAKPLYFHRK
Assay: MMTV luciferase reporter assay in Cos-7 cells
Assay type: cell-based
Conditions: Cos-7, MMTV-Luc; read-out: EC50, activation of MR L848Q
pEC50: −log10 of the molar value.
OBSERVATION TYPE: pEC50

Asked: Fill in: pEC50 of `C[C@]12C[C@H](O)[C@H]3[C@@H](CCC4=CC(=O)CC[C@@]43C)[C@@H]1CC[C@@H]2C(=O)CO` is ___
Given back: ~9.00

====

Molecular target: purified MR LBD/corticosterone complex (Homo sapiens, UniProt P08235, C808S)
Construct: made in house; host or cells: E. coli BL21DE3 (pET24a)
Sequence (P08235 727-984 C808S): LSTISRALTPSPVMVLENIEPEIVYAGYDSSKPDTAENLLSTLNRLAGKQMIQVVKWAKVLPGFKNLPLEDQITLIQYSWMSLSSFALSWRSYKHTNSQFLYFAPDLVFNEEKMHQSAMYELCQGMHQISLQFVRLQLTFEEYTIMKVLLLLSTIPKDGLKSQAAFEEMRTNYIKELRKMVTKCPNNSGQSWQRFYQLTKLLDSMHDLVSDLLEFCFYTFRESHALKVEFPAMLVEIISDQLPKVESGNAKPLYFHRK
Experiment: AlphaScreen binding of biotinylated coactivator/corepressor peptides (FIG. 1B)
Settings: corticosterone-bound MR LBD

CHAIN	interaction with purified MR LBD
SGNLVPDAASKHKQLSELLRGGSG (listed as Homo sapiens) [CBP]	weakly
GHGEDFSKVSQNPILTSLLQITGN (listed as Homo sapiens) [TRAP220]	weakly
